Kindly supply the reported pIC50 values for the records listed here.
- Tested on: DHL8
- assay-method-text: DLBCL cell line viability, CellTiter Glo, ten-point curve
- Format: cell-based
- measurement-conditions: read-out: IC50 of Kinase Inhibitor in Cell Titer Glo Assay
Keep in mind that pIC50 stands for -log10 of concentration in molar terms.

**Q:** Please report pIC50 for the following molecule: COc1cccc2c1C(=O)c1c(O)c3c(c(O)c1C2=O)C[C@@](O)(C(=O)CO)C[C@@H]3O[C@H]1C[C@H](N)[C@H](O)[C@H](C)O1
**A:** 6.82

**Q:** Please report pIC50 for the following molecule: C[C@H](Nc1ncnc2nc[nH]c12)c1cc2cccc(Cl)c2c(=O)n1-c1ccccc1
**A:** 4.35

**Q:** Please report pIC50 for the following molecule: CCS(=O)(=O)N1CCN(c2ccc(Nc3ncc(C(N)=O)c(NC4CC4)n3)cc2)CC1
**A:** 5.51

**Q:** Please report pIC50 for the following molecule: CC[C@H](Nc1ncnc2[nH]cnc12)c1nc2cccc(F)c2c(=O)n1-c1ccccc1
**A:** 4.31

---

- assay-method-text: Phase I study, pharmacokinetics following oral dosing
- Type: in vivo, human
- measurement-conditions: human, plasma, po, 40 mg/day, 40 mg/day oral; Table 2, n=28; read-out: SS Cmax
parameter: Cmax

**Q:** Please report Cmax for the following compound: CCS(=O)(=O)N1CCN(c2ccc(Nc3ncc(C(N)=O)c(NC4CC4)n3)cc2)CC1
**A:** 1480 nM

---

Kindly supply the reported pIC50 values for the records listed here.
- System: RCK8
- assay-method-text: DLBCL cell line viability, CellTiter Glo, ten-point curve
- Type: cell-based
- measurement-conditions: Homo sapiens; RCK8 cell line; read-out: IC50 of Kinase Inhibitor in Cell Titer Glo Assay
Keep in mind that pIC50 stands for -log10 of concentration in molar terms.

**Q:** Please report pIC50 for the following compound: COc1cccc2c1C(=O)c1c(O)c3c(c(O)c1C2=O)C[C@@](O)(C(=O)CO)C[C@@H]3O[C@H]1C[C@H](N)[C@H](O)[C@H](C)O1
**A:** 6.70

**Q:** Please report pIC50 for the following compound: CCS(=O)(=O)N1CCN(c2ccc(Nc3ncc(C(N)=O)c(NC4CC4)n3)cc2)CC1
**A:** 4.81

---

- assay-method-text: Phase I study, pharmacokinetics following oral dosing
- Assay type: in vivo, human
- measurement-conditions: human, plasma, oral; 30 mg/day; Table 3, n=43
parameter: AUC (µM·h)
Numbers only here, please. The scale is µM·h.

**Q:** Please report AUC for the following compound: CCS(=O)(=O)N1CCN(c2ccc(Nc3ncc(C(N)=O)c(NC4CC4)n3)cc2)CC1 [Cerdulatinib]
**A:** 7.5

---

- assay-method-text: Phase I study, pharmacokinetics following oral dosing
- Type: in vivo, human
- measurement-conditions: human, plasma; 40 mg/day oral; Table 2, n=28; read-out: T1/2 (converted)
parameter: half-life

**Q:** Please report half-life for the following compound: CCS(=O)(=O)N1CCN(c2ccc(Nc3ncc(C(N)=O)c(NC4CC4)n3)cc2)CC1 [Cerdulatinib]
**A:** 32.8 h

---

- assay-method-text: Phase I study, pharmacokinetics following oral dosing
- Type: in vivo, human
- measurement-conditions: human, plasma, oral; 45 mg BID; n=20; read-out: T1/2 (converted)
- Description: A first-in-human study of cerdulatinib in patients with relapsed/refractory CLL/SLL or B-cell non-Hodgkin's lymphoma (NHL) was carried out. […] Patients received a single dose on day 1 for 72 hour PK evaluation. Continuous dosing was initiated on day 4. […] Pharmacokinetics (“PK”), pharmacodynamics (“PD”), and safety were monitored. Response was assessed by standard criteria. […] Serum markers of tumor burden, including CCL3, CCL4, and other markers of inflammation (02M and CRP), were also being measured.
parameter: half-life

**Q:** Please report half-life for the following compound: CCS(=O)(=O)N1CCN(c2ccc(Nc3ncc(C(N)=O)c(NC4CC4)n3)cc2)CC1 [Cerdulatinib]
**A:** 27.5 h
